These entries and their values trace back to PubChem BioAssay AID813.

For each of the compounds below, state its activation factor.
TARGET UNDER TEST: Alkaline phosphatase, tissue-nonspecific isozyme (Homo sapiens) (UniProt P05186)
Sequence (P05186 whole entry, looked up): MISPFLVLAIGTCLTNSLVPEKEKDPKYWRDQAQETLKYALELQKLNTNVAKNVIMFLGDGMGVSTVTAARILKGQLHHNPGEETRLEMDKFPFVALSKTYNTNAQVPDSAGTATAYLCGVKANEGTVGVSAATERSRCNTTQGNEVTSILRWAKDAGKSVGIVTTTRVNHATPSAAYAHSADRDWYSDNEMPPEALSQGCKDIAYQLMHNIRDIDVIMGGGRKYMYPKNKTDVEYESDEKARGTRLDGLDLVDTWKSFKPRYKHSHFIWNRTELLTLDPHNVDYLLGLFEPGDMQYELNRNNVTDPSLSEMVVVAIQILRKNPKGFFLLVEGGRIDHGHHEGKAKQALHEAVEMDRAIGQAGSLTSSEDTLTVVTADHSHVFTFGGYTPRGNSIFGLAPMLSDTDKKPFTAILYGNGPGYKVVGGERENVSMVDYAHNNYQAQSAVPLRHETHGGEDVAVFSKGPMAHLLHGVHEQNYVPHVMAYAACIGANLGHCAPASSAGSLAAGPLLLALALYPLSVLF
METHOD NOTES: human TNAP enzyme activators, primary screen, biochemical, luminescent, intermediate phosphate acceptor level (AID 813)
RECORDED CONDITIONS: purified TNAP, CDP-star luminescence, 100 mM DEA, 30 min; at 20 µM; active compounds read high; scale: 0 levamisole-inhibited, 1 vehicle-only enzyme
Hit rate of the full screen: of about 64,000 compounds, fewer than 10 were called active. A selection follows.

Enter recorded activation factor with Alkaline phosphatase, tissue-nonspecific isozyme (Homo sapiens) (UniProt P05186) for O=C(CCN1C(=O)COc2ccccc21)NCCCN1CCN(c2ccc(F)cc2)CC1 here.
0.9 (inactive)

Enter recorded activation factor with Alkaline phosphatase, tissue-nonspecific isozyme (Homo sapiens) (UniProt P05186) for Cc1cc(C)nc(NC2=NCC(=O)N2c2ccc(Cl)cc2)n1 here.
0.9 (inactive)

Enter recorded activation factor with Alkaline phosphatase, tissue-nonspecific isozyme (Homo sapiens) (UniProt P05186) for CCOC(=O)C1C(=O)OC2(CCCC2)C1C(=O)OCC (stereo unspecified) here.
0.9 (inactive)

Enter recorded activation factor with Alkaline phosphatase, tissue-nonspecific isozyme (Homo sapiens) (UniProt P05186) for Cc1ccc(C(=O)Nc2ccccc2C(=O)NC2CCCCC2)cc1S(=O)(=O)N1CCOCC1 here.
0.9 (inactive)

Enter recorded activation factor with Alkaline phosphatase, tissue-nonspecific isozyme (Homo sapiens) (UniProt P05186) for COc1ccccc1N1CCN(Cc2ccc(OC)c3ccccc23)CC1 here.
0.9 (inactive)

Enter recorded activation factor with Alkaline phosphatase, tissue-nonspecific isozyme (Homo sapiens) (UniProt P05186) for Cc1cccc(N)c1SC1CCCCC1O (stereo unspecified) here.
0.9 (inactive)

Enter recorded activation factor with Alkaline phosphatase, tissue-nonspecific isozyme (Homo sapiens) (UniProt P05186) for CC(C)(C)n1nnc(CCc2nnn(C(C)(C)C)n2)n1 here.
0.9 (inactive)

Enter recorded activation factor with Alkaline phosphatase, tissue-nonspecific isozyme (Homo sapiens) (UniProt P05186) for CSc1cccc(NC(=O)C2CCCN2S(=O)(=O)c2ccc3c(c2)CCC(=O)N3)c1 (stereo unspecified) here.
0.9 (inactive)

Enter recorded activation factor with Alkaline phosphatase, tissue-nonspecific isozyme (Homo sapiens) (UniProt P05186) for NC(=O)c1ccsc1NC(=O)c1ccco1 here.
0.8 (inactive)

Enter recorded activation factor with Alkaline phosphatase, tissue-nonspecific isozyme (Homo sapiens) (UniProt P05186) for CC1(C)Cc2c(C#N)c(SCc3nc4ccccc4[nH]3)nc(N3CCOCC3)c2CO1 here.
1 (inactive)

Enter recorded activation factor with Alkaline phosphatase, tissue-nonspecific isozyme (Homo sapiens) (UniProt P05186) for CC(Nc1nc(N2CCCC2)nc2ccccc12)c1ccccc1 (stereo unspecified) here.
1 (inactive)

* * *

TARGET UNDER TEST: Alkaline phosphatase, tissue-nonspecific isozyme (Homo sapiens) (UniProt P05186)
METHOD NOTES: human TNAP enzyme activators, primary screen, biochemical, luminescent, intermediate phosphate acceptor level (AID 813)
RECORDED CONDITIONS: purified TNAP, CDP-star luminescence, 100 mM DEA, 30 min; at 20 µM; active compounds read high; scale: 0 levamisole-inhibited, 1 vehicle-only enzyme
The whole screen tested about 64,000 compounds, of which fewer than 10 were called active. A selection follows.
For each of the molecules below, state its activation factor.
Keep it simple and answer with nothing but the number.

For the molecule O=C(CN1CCN(C(=O)c2cccc(F)c2)CC1)Nc1ccccc1F , give its reported activation factor.
1.1

For the molecule CCOC(=O)C1=C(CNC2CCCCC2)NC(=O)NC1c1cc(C)ccc1C (stereo not given) , give its reported activation factor.
0.9

For the molecule O=C(Cn1[nH]c(=O)c2ccccc2c1=O)Nc1cccc(-c2nnc3n2CCCCC3)c1 , give its reported activation factor.
0.9

For the molecule COc1ccc(C)cc1-n1nnnc1SCC(=O)c1cc(C)n(Cc2ccco2)c1C , give its reported activation factor.
0.8

For the molecule CC1CN(C(=O)CN2C(=O)NC(C)(c3ccccc3)C2=O)CC(C)O1 (stereo not given) , give its reported activation factor.
0.9

For the molecule CCC(=O)N1c2ccc(S(=O)(=O)CCC(=O)N3CCN(c4ccccc4)CC3)cc2CC1C (stereo not given) , give its reported activation factor.
0.9

For the molecule COc1ccc2occ(C(=O)c3ccc(N=C(C)N(C)C)cc3)c2c1 , give its reported activation factor.
0.9

For the molecule CCC1=[N+]([O-])C(C)(/C(C)=N\O)N(O)C1(C)C (stereo not given) , give its reported activation factor.
1

For the molecule CCOC(=O)Cn1c(N)c(C(=O)OC)sc1=S , give its reported activation factor.
0.9

For the molecule COc1ccc(N2C(=O)C3CCCN3C2c2cc(OC)c(OC)cc2OC)cc1 (stereo not given) , give its reported activation factor.
0.9
